tested on: SK-MEL-5 melanoma cell line; assay: MTS cytotoxicity assay (CellTiter 96 Aqueous One Solution); format: cell-based; settings: Homo sapiens; SK-MEL-5 cells, 24 hours
Endpoint Name: IC50
Remember to put the unit after the number in your answer.

Complete the entry with IC50 for COc1cccc2ccc3c(c12)Oc1cc(NC(=O)OCC[Se][Se]CCO)ccc1C31OC(=O)c2ccccc21 (stereo not shown)
4.77 µM
